Test Target: IL-1β (Homo sapiens)
Assay Method Text: TR-FRET IL-1β/hIL-1R1 receptor displacement assay
Format: biochemical
Condition Label: summary; read-out: TR-FRET IL-1beta IC50, AVRG
Readout: IC50
Mention the unit after the number when you answer.

Q: What does the record list as IC50 for O=C(O)c1ccccc1-c1ccc(O)c(C2(O)C(=O)Nc3cc(Cl)ccc32)c1 (stereo not shown) ?
Result: 126 µM

* * *

What Kd was measured for each of the following?
Test Target: IL-1β (Homo sapiens, UniProt P01584)
Sequence (P01584 117-269): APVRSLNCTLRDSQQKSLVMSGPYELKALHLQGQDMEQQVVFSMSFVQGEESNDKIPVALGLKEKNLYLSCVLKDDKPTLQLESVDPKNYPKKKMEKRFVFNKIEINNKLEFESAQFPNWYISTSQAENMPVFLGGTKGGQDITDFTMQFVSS
Assay Method Text: SPR binding of compounds to immobilized hIL-1β
Design: Mature hIL-1β was expressed in Escherichia coli; made in house; host or cells: Escherichia coli BL21 (DE3), pET17b
Condition Label: steady-state fit, 1:1 Langmuir; read-out: SPR KD
One number for each entry, in µM.

Recorded Kd, per entry:
Molecule | Test Target | Readout | Output Unit | Data Value
O=C(O)c1ccccc1-c1ccc(O)c(C2(O)C(=O)Nc3cc(Cl)ccc32)c1 (stereo not drawn) | IL-1β (Homo sapiens, UniProt P01584) | Kd | µM | 32
Cc1ccc2c(c1)NC(=O)C2(O)c1cc(Cl)ccc1O (stereo not drawn) | IL-1β (Homo sapiens, UniProt P01584) | Kd | µM | 261

Kindly review the next molecule as well.
Q: What does the record list as Kd for Cc1ccc2c(c1)NC(=O)C2(O)c1cc(C(C)C)ccc1O (stereo not drawn) ?
Result: 172

* * *

Test Target: IL-1β (Homo sapiens, UniProt P01584)
Assay Method Text: protein-observed 1H-13C-HMQC NMR binding (I/Io of Leu60 Cδ1H3)
Design: Mature hIL-1β was expressed in Escherichia coli; made in house; host or cells: Escherichia coli BL21 (DE3), pET17b
Readout: binding to hIL-1β by protein-observed NMR

Compound | Data Value
COc1ccc(Cl)cc1C1(O)C(=O)Nc2cc(C(F)(F)F)ccc21 (stereo not drawn) | lack of binding
Cc1ccc2c(c1)N(C)C(=O)C2(O)c1cc(C(C)C)ccc1O (stereo not drawn) | lack of binding

* * *

Test Target: IL-1β (Homo sapiens, UniProt P01584)
Assay Method Text: 19F-reporter displacement assay with (S)-1 as probe
Assay type: binding
Parameters: Mature hIL-1β was expressed in Escherichia coli; made in house; host or cells: Escherichia coli BL21 (DE3), pET17b
Condition Label: 19F-reporter Ki, protein 10 μM, reporter (S)-1 40 μM
Readout: pKi
Give bare numbers, as −log10 of the molar value.

Molecule | Data Value
Cc1ccc2c(c1)NC(=O)C2(O)c1cc(C(C)C)ccc1O (centres unmarked) [Compound 3] | 3.82
O=C1Nc2cc(Cl)ccc2C1(O)c1cc(Cl)ccc1O (centres unmarked) [Compound 9] | 3.76
Cc1ccc2c(c1)NC(=O)C2(O)c1cc(-c2ccc(C(=O)O)cc2)ccc1O (centres unmarked) [Compound 10] | 4.12

Kindly review the next molecule as well.
Q: What does the record list as pKi for O=C(O)c1ccccc1-c1ccc(O)c(C2(O)C(=O)Nc3cc(Cl)ccc32)c1 (centres unmarked) [Compound 11] ?
Result: 4.20

* * *

Test Target: IL-1α (Homo sapiens, UniProt P01583)
Sequence (P01583 113-271): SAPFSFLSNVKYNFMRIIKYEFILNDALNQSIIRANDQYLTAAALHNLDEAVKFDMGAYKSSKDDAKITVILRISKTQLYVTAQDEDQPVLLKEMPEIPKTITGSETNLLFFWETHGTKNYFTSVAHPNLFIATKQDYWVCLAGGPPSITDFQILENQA
Assay Method Text: TR-FRET IL-1α/hIL-1R1 receptor displacement assay
Assay type: biochemical
Condition Label: Il1a; read-out: TR-FRET IC50, individual experiments
Readout: IC50

Q: What does the record list as IC50 for Cc1ccc2c(c1)NC(=O)[C@@]2(c1cn[nH]c1)c1cc(-c2ccc(C(=O)O)cc2C(=O)O)ccc1O [Compound (S)-2] ?
Result: > 200 µM

* * *

Test Target: IL-1β (Homo sapiens, UniProt P01584)
Assay Method Text: SPR binding of compounds to immobilized hIL-1β
Set-up: Mature hIL-1β was expressed in Escherichia coli; made in house; host or cells: Escherichia coli BL21 (DE3), pET17b
Condition Label: source data; read-out: SPR Kd, Mean
What pKd was measured for each of the following?
Give bare numbers, as −log10 of the molar value.

Recorded pKd, per entry:
Molecule | Test Target | pKd
Cc1ccc2c(c1)NC(=O)[C@@]2(c1cn[nH]c1)c1cc(-c2ccc(C(=O)O)cc2C(=O)O)ccc1O [Compound (S)-2] | IL-1β (Homo sapiens, UniProt P01584) | 5.96
O=C(O)c1ccccc1-c1ccc(O)c(C2(O)C(=O)Nc3cc(Cl)ccc32)c1 (centres unmarked) [Compound 11] | IL-1β (Homo sapiens, UniProt P01584) | 4.50
Cc1ccc2c(c1)NC(=O)C2(O)c1cc(C(C)C)ccc1O (centres unmarked) [Compound 3] | IL-1β (Homo sapiens, UniProt P01584) | 3.76
Cc1ccc(O)c(C2(c3cn[nH]c3)C(=O)Nc3cc(C(F)(F)F)ccc32)c1 (centres unmarked) [Compound 12] | IL-1β (Homo sapiens, UniProt P01584) | 3.86

Kindly review the next molecule as well.
Q: Request body: readout pKd, system IL-1β (Homo sapiens, UniProt P01584), query Cc1ccc2c(c1)NC(=O)C2(O)c1cc(-c2ccc(C(=O)O)cc2)ccc1O (centres unmarked) [Compound 10] . Return the value.
Result: 4.36

* * *

Test Target: IL-1β (Homo sapiens)
Assay Method Text: TR-FRET IL-1β/hIL-1R1 receptor displacement assay
Format: biochemical
Condition Label: read-out: TR-FRET IL-1β IC50
pIC50: −log10 of the molar value.
What pIC50 was measured for each of the following?

Recorded pIC50, per entry:
Compound | Data Value
O=C1Nc2cc(C(F)(F)F)ccc2C1(O)c1ccccc1O (stereo not shown) | < 3.30
Cc1ccc2c(c1)NC(=O)[C@@]2(c1cn[nH]c1)c1cc(-c2ccc(C(=O)O)cc2C(=O)O)ccc1O [Compound (S)-2] | 5.40
Cc1ccc(O)c(C2(c3cn[nH]c3)C(=O)Nc3cc(C(F)(F)F)ccc32)c1 (stereo not shown) | < 3.70

Kindly review the next compound as well.
Q: What does the record list as pIC50 for Cc1ccc2c(c1)N(C)C(=O)C2(O)c1cc(C(C)C)ccc1O (stereo not shown) ?
Result: < 3.30

* * *

What pIC50 was measured for each of the following?
Test Target: UniProt:P01583
Assay Method Text: TR-FRET IL-1α/hIL-1R1 receptor displacement assay
Assay type: biochemical
Condition Label: read-out: TR-FRET IL-1α IC50
pIC50: −log10 of the molar value.

Recorded pIC50, per entry:
Compound | Data Value
O=C(O)c1ccccc1-c1ccc(O)c(C2(O)C(=O)Nc3cc(Cl)ccc32)c1 (stereo not shown) | < 3.70
O=C1Nc2cc(C(F)(F)F)ccc2[C@]1(O)c1cc(Cl)ccc1O [Compound (S)-1] | < 3.70
Cc1ccc2c(c1)NC(=O)C2(O)c1cc(-c2ccc(C(=O)O)cc2)ccc1O (stereo not shown) | < 3.70
Cc1ccc(O)c(C2(c3cn[nH]c3)C(=O)Nc3cc(C(F)(F)F)ccc32)c1 (stereo not shown) | < 3.70
Cc1ccc2c(c1)NC(=O)C2(O)c1cc(Cl)ccc1O (stereo not shown) | < 3.70

For every listed record, write down its pIC50.
1. O=C1Nc2cc(C(F)(F)F)ccc2C1(O)c1cc(Cl)ccc1O (stereo not shown)
2. Cc1ccc2c(c1)NC(=O)[C@@]2(c1cn[nH]c1)c1cc(-c2ccc(C(=O)O)cc2C(=O)O)ccc1O [Compound (S)-2]

Result:
< 3.70
< 3.70

* * *

Test Target: IL-1β (Homo sapiens)
Assay Method Text: protein-observed 1H-13C-HMQC NMR binding (I/Io of Leu60 Cδ1H3)
Set-up: Mature hIL-1β was expressed in Escherichia coli; made in house; host or cells: Escherichia coli BL21 (DE3), pET17b
Condition Label: source data
Readout: NMR I/Io values, Mean
Give bare numbers.

Recorded NMR I/Io values, Mean, per entry:
Molecule | NMR I/Io values, Mean
COc1ccc(Cl)cc1C1(O)C(=O)Nc2cc(C(F)(F)F)ccc21 (centres unmarked) | 0.99
Cc1ccc2c(c1)NC(=O)C2(O)c1cc(Cl)ccc1O (centres unmarked) | 0.18
O=C1Nc2ccccc2C1(O)c1cc(Cl)ccc1O (centres unmarked) | 0.59
Cc1ccc2c(c1)NC(=O)C2(O)c1cc(C(C)C)ccc1O (centres unmarked) | 0.19

Q: What does the record list as NMR I/Io values, Mean for Cc1ccc2c(c1)N(C)C(=O)C2(O)c1cc(C(C)C)ccc1O (centres unmarked) ?
Result: 0.98

* * *

Test Target: IL-1β (Homo sapiens, UniProt P01584)
Assay Method Text: SPR binding of compounds to immobilized hIL-1β
Design: Mature hIL-1β was expressed in Escherichia coli; made in house; host or cells: Escherichia coli BL21 (DE3), pET17b
Condition Label: steady-state fit, 1:1 Langmuir; read-out: SPR KD
Readout: Kd (µM)
Answers are plain numbers, in µM.

Recorded Kd, per entry:
Compound | Output Unit | Data Value
Cc1ccc2c(c1)NC(=O)C2(O)c1cc(-c2ccc(C(=O)O)cc2)ccc1O (stereo not shown) | µM | 44
Cc1ccc(O)c(C2(c3cn[nH]c3)C(=O)Nc3cc(C(F)(F)F)ccc32)c1 (stereo not shown) | µM | 138

Kindly review the next compound as well.
Q: What does the record list as Kd for Cc1ccc2c(c1)NC(=O)[C@@]2(c1cn[nH]c1)c1cc(-c2ccc(C(=O)O)cc2C(=O)O)ccc1O [Compound (S)-2] ?
Result: 1.1
